# Test system: Plasmodium falciparum
# assay.overview: GSK_TCMDC: Inhibition of Plasmodium falciparum 3D7 in whole red blood cells, using parasite LDH activity as an index of growth. Test compounds present at 2uM
# Assay type: functional
Consider the following compounds; for each one, report its Inhibition.
Answer with a number only, understood to be in %.

Exam item: Please state recorded Inhibition (tested on Plasmodium falciparum) of CN(C)CCCOc1ccc(CN2CC[C@H](NC(=O)c3ccc(Cl)c(Cl)c3)C2)cc1Cl.O=C(O)C(F)(F)F
Marked response: 100

Exam item: Check CCCCCn1c(Sc2ccc(C#N)c([N+](=O)[O-])c2)nnc1-c1cccc(Cl)c1 too.
Marked response: 95

Exam item: Check CCC1CN2CCc3c([nH]c4ccccc34)C2CC1CC1=NCCc2c1[nH]c1ccccc21.Cl (stereo unspecified) too.
Marked response: 100

Exam item: Check NC(=O)c1ccc(NC(=O)CN(Cc2ccc(Cl)cc2)S(=O)(=O)c2ccccc2)cc1 too.
Marked response: 90

Exam item: Check CCn1c(C2CCN(CCC3CCN(C(=O)/C=C/c4ccc(Cl)c(Cl)c4)CC3)CC2)nc2ccccc21 too.
Marked response: 86

Exam item: Check COc1ccc(NC(=O)/C=C/c2cc(Br)ccc2F)cc1OCCN(C(C)C)C(C)C.O=C(O)C(F)(F)F too.
Marked response: 100

Exam item: Check Fc1ccc2[nH]c(-c3cccc(-c4ccc(CNCC5CCCO5)cc4)c3)nc2c1.O=C(O)C(F)(F)F (stereo unspecified) too.
Marked response: 100

Exam item: Check Cc1cc(N2CCC(NS(=O)(=O)c3ccccc3)CC2)nc(Nc2cccc(C#N)c2)n1.O=C(O)C(F)(F)F too.
Marked response: 93

Exam item: Check COc1cc(Cc2cnc(N)nc2N)cc(OCCCCNS(=O)(=O)C(F)(F)F)c1OC too.
Marked response: 84

Exam item: Check Cc1ccc(NC(=O)c2cccc(CN3CCCN(Cc4cccc(O)c4)CC3)c2)cc1F.O=C(O)C(F)(F)F too.
Marked response: 99

Exam item: Check CCCCCC(C)C(C)c1cc(O)c2c(c1)OC(C)(C)C=C2c1cc[n+]([O-])cc1 (stereo unspecified) too.
Marked response: 91
